Recorded inhibition by entry
target_entity: MAP/microtubule affinity-regulating kinase 3 (Homo sapiens);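 further: mean percent inhibition of MARK3 kinase activity, measured within the GSK PKIS screening panel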
experimental_setup: at 0.1 µM
measure: inhibition (%)

                                 smiles_str     measure  unit_label  meas_value
0  CNC(=O)c1cccc(C#Cc2cncnc2Nc2ccc(OCc3cccc(F)c3)c(Cl)c2)c1  inhibition           %        1.07
1          CNC(=O)c1cncc(/C=C/c2ccccc2Cl)c1  inhibition           %        1.01
2  COc1cc2c(cc1Nc1nc(Nc3ccsc3C(N)=O)c3cc[nH]c3n1)N(C(=O)CN(C)C)CCC2(C)C  inhibition           %        5.88
3  CCNC(=O)O[C@H]1CN[C@H](C#Cc2cc3ncnc(Nc4ccc(OCc5cccc(F)c5)c(Cl)c4)c3s2)C1  inhibition           %        2.76
4  CCn1c(-c2nonc2N)nc2cnc(Oc3cccc(NC(=O)c4ccc(N(C)C)cc4)c3)cc21  inhibition           %        2.76

###

Recorded inhibition by entry
System: Mast/stem cell growth factor receptor Kit (Homo sapiens), P10721 [D816V]
Sequence (P10721 whole entry D816V): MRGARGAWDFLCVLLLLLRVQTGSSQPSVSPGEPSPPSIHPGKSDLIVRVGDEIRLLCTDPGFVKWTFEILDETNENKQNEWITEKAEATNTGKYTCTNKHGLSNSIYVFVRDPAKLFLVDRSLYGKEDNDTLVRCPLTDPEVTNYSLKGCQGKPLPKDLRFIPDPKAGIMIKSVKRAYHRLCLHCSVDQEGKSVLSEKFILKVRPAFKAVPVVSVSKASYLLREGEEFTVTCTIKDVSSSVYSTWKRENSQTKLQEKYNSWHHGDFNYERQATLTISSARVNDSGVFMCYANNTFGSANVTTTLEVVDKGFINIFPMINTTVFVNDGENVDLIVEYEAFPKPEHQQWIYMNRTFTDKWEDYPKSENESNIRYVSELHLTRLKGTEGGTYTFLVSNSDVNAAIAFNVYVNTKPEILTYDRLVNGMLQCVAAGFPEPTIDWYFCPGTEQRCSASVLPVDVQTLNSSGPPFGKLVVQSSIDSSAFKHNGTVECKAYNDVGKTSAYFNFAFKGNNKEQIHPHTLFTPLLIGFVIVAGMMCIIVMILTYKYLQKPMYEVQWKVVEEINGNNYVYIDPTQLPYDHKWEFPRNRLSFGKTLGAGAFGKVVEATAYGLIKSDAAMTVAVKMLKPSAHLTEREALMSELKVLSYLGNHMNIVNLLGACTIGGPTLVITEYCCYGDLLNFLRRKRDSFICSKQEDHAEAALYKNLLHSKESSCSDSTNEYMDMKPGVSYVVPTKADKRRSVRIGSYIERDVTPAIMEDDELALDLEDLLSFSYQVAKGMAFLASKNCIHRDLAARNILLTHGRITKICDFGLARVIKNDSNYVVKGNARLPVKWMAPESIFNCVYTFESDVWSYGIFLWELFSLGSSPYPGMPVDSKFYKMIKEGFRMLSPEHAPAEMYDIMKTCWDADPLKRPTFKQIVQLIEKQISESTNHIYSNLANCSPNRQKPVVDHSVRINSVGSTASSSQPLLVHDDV
experimental_setup: at 1 µM
measure: inhibition (%)

                                 smiles_str                             target_entity  unit_label  meas_value
0  CCN(CC)S(=O)(=O)c1ccc(OC)c(Nc2ncc(-c3ccccc3)o2)c1  Mast/stem cell growth factor receptor Kit (Homo sapiens), P10721 [D816V]           %        6.46
1   Nc1nc(-c2ccc(F)cc2)c(-c2ccc3ncccc3n2)s1  Mast/stem cell growth factor receptor Kit (Homo sapiens), P10721 [D816V]           %        5.04
2  COc1ccc(-c2nn3ncccc3c2-c2ccnc(Nc3ccc4c(c3)OCCO4)n2)cc1  Mast/stem cell growth factor receptor Kit (Homo sapiens), P10721 [D816V]           %         0.8
3             COc1ccc(-c2cc3c(N)ncnc3o2)cc1  Mast/stem cell growth factor receptor Kit (Homo sapiens), P10721 [D816V]           %        0.89
4  COc1ccc(CNC(=O)c2ccc(-c3cc(-c4nnc(C)o4)ccc3C)cc2)cc1  Mast/stem cell growth factor receptor Kit (Homo sapiens), P10721 [D816V]           %        4.89
5    Cc1ccc(O)cc1Nc1ccnc2cc(-c3ccccn3)ccc12  Mast/stem cell growth factor receptor Kit (Homo sapiens), P10721 [D816V]           %        73.7
6  [O-][S+]1CCN(Cc2ccc(-c3ccc4ncnc(Nc5ccc(OCc6cccc(F)c6)c(Cl)c5)c4c3)o2)CC1  Mast/stem cell growth factor receptor Kit (Homo sapiens), P10721 [D816V]           %        3.81
7         N#Cc1c(NC(=O)CN2CCOCC2)sc2c1CCCC2  Mast/stem cell growth factor receptor Kit (Homo sapiens), P10721 [D816V]           %        3.93
8  COC(=O)c1sc(-n2cnc3cc(OC)c(OC)cc32)cc1OCc1ccccc1C(F)(F)F  Mast/stem cell growth factor receptor Kit (Homo sapiens), P10721 [D816V]           %        2.88
9  CN(C)CCOc1ccc(-c2nc(-c3ccncc3)c(-c3ccc4c(c3)CC/C4=N\O)[nH]2)cc1  Mast/stem cell growth factor receptor Kit (Homo sapiens), P10721 [D816V]           %        6.73
